Where do these numbers come from? They come from PubChem BioAssay.

assay: inhibitors of TNFa-induced NFkB p65 translocation, primary screen, imaging, HUVEC, MLSMR starter and 10KST1 sets (AID 438); settings: HUVEC TNFa-induced p65 nuclear translocation; at 2 µM, hits give high values, 0% TNFa-plus-vehicle, 100% no-TNFa wells;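 note: compound added about 3h40 before a 20 min TNFalpha stimulation; signal is the nuclear over cytoplasmic p65 intensity ratio per well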

Compound | inhibition (%)
CCOc1cc(CN2CCOCC2)cc(C(C)=O)c1 | -3.9
CN1CCN(c2ncnc3c2[nH]c2ccc(F)cc23)CC1 | -15.6
C[C@]12CC[C@@H]3c4ccc(OS(=O)(=O)O)cc4CC[C@H]3[C@@H]1CCC2=O | -2.6
CC1(C)CC(=O)C=C(NCc2ccncc2)C1 | -5.3
CC(C)C1C(C#N)=C(N)Oc2n[nH]c(C(C)(C)C)c21 (configuration not stated) | -8.2
C=C(Br)Cn1c(CCCC)nc2ccccc21 | -6.3
Cc1c(/C(O)=C2\C(=O)C(=O)N(CCCN(C)C)C2c2ccccc2)cnn1-c1ccccc1 (configuration not stated) | 1.1
CN(C)c1ccc(C=NCCC2(O)CCOC(C)(C)C2)cc1 (configuration not stated) | -27
Cc1cc(=O)[nH]c(SCC(=O)c2ccccc2)c1C#N | -0.9
Cc1ccc(-n2ncc3c(N4CCN(c5ccccc5)CC4)ncnc32)c(C)c1 | -15.9
Nc1nnnn1/N=C/c1ccccn1 | -2.8
Fc1ccccc1/C=N/n1cnnc1 | -6.3
